Data provenance is patent US20050020492A1.

target: human MCH-2R (human, UniProt Q969V1 1-340); experiment: cell-based or functional assay
Sequence (Q969V1 whole entry): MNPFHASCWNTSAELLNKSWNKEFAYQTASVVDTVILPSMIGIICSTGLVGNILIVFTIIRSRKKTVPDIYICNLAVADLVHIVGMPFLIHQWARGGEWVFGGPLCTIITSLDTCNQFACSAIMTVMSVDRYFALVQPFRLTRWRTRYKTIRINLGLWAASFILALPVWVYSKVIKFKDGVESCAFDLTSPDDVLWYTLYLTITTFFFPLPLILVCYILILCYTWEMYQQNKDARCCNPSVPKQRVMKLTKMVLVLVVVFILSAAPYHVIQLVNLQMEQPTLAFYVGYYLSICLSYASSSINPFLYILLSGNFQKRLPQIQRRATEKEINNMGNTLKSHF
Positions of bridges follow the written chain, without caps; N, C: chain ends. No end group written: not given here.
valueKind: Activation %, aequorin bioluminescence (%)

- Ac-RCMLFRVYRPC-NH2 (disulfide 2-11 (inferred)) [SEQ. ID. NO. 20 (Phe^10 analog of Ac-hMCH(6-16)-NH2)]: 88

[A] Ac-RCMLERVYRPC-NH2 (disulfide 2-11 (inferred), also called Glu^10 peptide) [SEQ. ID. NO. 28 (Glu^10 analog of Ac-hMCH(6-16)-NH2)]
[B] Ac-RCMLRRVYRPC-NH2 (disulfide 2-11 (inferred)) [SEQ. ID. NO. 23 (Arg^10 analog of Ac-hMCH(6-16)-NH2)]
[C] DFDMLRCMLGRVYRPCWQV (disulfide 7-16 (inferred)) [human MCH]
Ask: Rank by Activation %, aequorin bioluminescence (largest to smallest). Your answer should be the labels, listed in the requested order.
Result: C, B, A

[a] Ac-RCMLKRVYRPC-NH2 (disulfide 2-11 (inferred)) [SEQ. ID. NO. 24 (Lys^10 analog of Ac-hMCH(6-16)-NH2)]
[b] RCMLXRVYRPC (N-terminal acetyl; Nle (norleucine) at position 10; C-terminal amide; disulfide cycle) [SEQ. ID. NO. 18 (Nle^10 analog of Ac-hMCH(6-16)-NH2)]
Ask: # min-compare on Activation %, aequorin bioluminescence between a and b // return label of chosen record
Result: a
